Where do these numbers come from? They come from patent US20250034171A1.

PROCEDURE SUMMARY: HTChem stab assay (chemical stability in buffer pH2, pH4 and pH7 vs DMSO reference)
Type: physicochemical
MEASUREMENT CONTEXT: 72 h, 50 µM
MEASURE NAME: Chemical stability data, Vehicle DMSO (%)
Give just the numeric value; % need not be written.

> print(dat)
                                   molecule  experimental.value
1  CCc1nc2ncc(OC)cn2c1C(=O)NCc1ccc(-c2nc3n(n2)CCC(C(F)(F)F)C3)cc1 (stereo not shown)                  93
2  CCc1nc2ncc(C)cn2c1C(=O)NCc1ccc(-c2nc3n(n2)CCCC3)cc1 [Compound 31ab]                 100
3  CCc1nc2ncc(Cl)cn2c1C(=O)NCc1ccc(-c2nc3n(n2)CCC(C(F)(F)F)C3)cc1 (single isomer, unassigned) [Compound 10b]                  96
4  CCc1nc2ncc(C)cn2c1C(=O)NCc1ccc(-c2cn3c(n2)CC(C(F)(F)F)CC3)cc1 (single isomer, unassigned)                 100
5  CCc1nc2nc(C)ccn2c1C(=O)NCc1ccc(-c2nc3n(n2)CCC(C(F)(F)F)C3)cc1 (stereo not shown) [Compound 5ab]                  94

So for CCc1nc2ncc(C)cn2c1C(=O)NCc1ccc(-c2nc3n(n2)CCC(C(F)(F)F)C3)cc1 (single isomer, unassigned) [Compound 1a] , the logged Chemical stability data, Vehicle DMSO turned out to be 100

So for CCc1nc2ncc(C)cn2c1C(=O)NCc1ccc(-c2nc3n(n2)CC(C(F)(F)F)CC3)cc1 (stereo not shown) [Compound 24ab] , the logged Chemical stability data, Vehicle DMSO turned out to be 100

----------
Below: a set of entries, each annotated with reported GeneTox AmesIIb Score.
System: Salmonella typhimurium Ames II Mixed Strains (TA7001-TA7006) and TA98
PROCEDURE SUMMARY: Genotoxicity assay (AmesIIb mutagenicity test); note: key: an AmesIIb score of 1 shows no genotoxicity signals
Assay type: cell-based
MEASUREMENT CONTEXT: Salmonella typhimurium
// print number alone

> print(dat)
                                   compound                               target.desc           measure.name  experimental.value
1  CCc1nc2ccc(F)cn2c1C(=O)NCc1ccc(-c2nc3n(n2)CC[C@H](C(F)(F)F)C3)cc1  Salmonella typhimurium Ames II Mixed Strains (TA7001-TA7006) and TA98  GeneTox AmesIIb Score                   1

So for CCc1nc2ncc(C)cn2c1C(=O)NCc1ccc(-c2cc3n(n2)CCC(C(F)(F)F)C3)cc1 (stereo not shown) [Compound 20ab] , the logged GeneTox AmesIIb Score turned out to be 1

So for CCc1nc2ncc(C)cn2c1C(=O)NCc1ccc(-c2cn3c(n2)CC(C(F)(F)F)CC3)cc1 (single isomer, unassigned) , the logged GeneTox AmesIIb Score turned out to be 1

So for CCc1nc2nc(C)ccn2c1C(=O)NCc1ccc(-c2cn3c(n2)CC(C(F)(F)F)CC3)cc1 (stereo not shown) [Compound 34ab] , the logged GeneTox AmesIIb Score turned out to be 1

So for CCc1nc2ncc(C)cn2c1C(=O)NCc1ccc(-c2nc3n(n2)CCC(C)C3)cc1 (stereo not shown) , the logged GeneTox AmesIIb Score turned out to be 1

So for CCc1nc2ncc(C)cn2c1C(=O)NCc1cc(C)c(-c2nc3n(n2)CCC(C(F)(F)F)C3)cn1 (stereo not shown) , the logged GeneTox AmesIIb Score turned out to be 1

So for CCc1nc2ncc(C)cn2c1C(=O)NCc1ccc(-c2nc3n(n2)CCC(C(F)(F)F)C3)cn1 (stereo not shown) , the logged GeneTox AmesIIb Score turned out to be 1
